// provenance: the supplement of paper PMC10567573

B1: ZNF8 (parent)
chain: RIHTGERPYMCKECGKAFSQNSSL

# Variants of: B1
# protocolDetails: protein stability index of a GFP-peptide fusion (GPS, HEK-293T) (PSI 1-6); higher = more stable;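 also: lentivirally expressed fusions sorted by FACS into six bins by GFP to DsRed ratio, PSI derived from sequencing read proportions per bin multiplied by bin number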
# measurementConditions: c terminus: a fixed tail appended
metric: protein stability index

* S23I | 2.02
* M10S | 2.26
* K12Q | 2.11
* S19E | 3.26
* N21L | 1.86
* A17K | 3
* A17S | 2.94
* Y9S | 2.2
* E6K | 2.35
* C14D | 3.48
* N21K | 2.75
* G15K | 2.99
* L24F | 2.48
* A17Q | 3.01
* N21D | 3.08
* R7S | 2.53
* K16Y | 1.61
* M10V | 2.24
* S19Q | 2.77
* E6F | 2.44
* E6H | 2.36
* L24H | 3.02
* G15N | 2.33
* S19K | 2.27
* S19C | 3.28
* Q20A | 2.65
* C14Y | 2.2
* S22K | 2.4
* H3P | 2.38
* P8L | 2.34
* K12D | 3.02
* M10H | 2.52
* T4G | 2.19
* A17G | 2.42
* L24M | 2.7
* R1D | 2.71
* F18K | 3.29
* I2W | 2.33
* C14M | 2.29
* H3C | 3.28
* C14I | 1.93
* K16I | 2.08
* S19G | 2.6
* L24K | 3.29
* K16G | 2.41
* R7W | 2.9
* Q20M | 2.21
* I2Y | 2.73
* C11V | 2.72
* R7C | 3.77
* Y9T | 2.42
* Q20K | 2.94
* E6D | 2.28
* P8A | 2.75
* M10A | 2.64
* A17N | 2.99
* S23C | 2.75
* G15F | 2.09
* P8K | 2.03
* A17I | 2.41
* C14Q | 3
* G5H | 2.63
* G5M | 2.62
* C11E | 3.42
* K12V | 2.07
* F18Y | 2.39
* G15R | 2.76
* R1L | 2.63
* H3E | 3.1
* E13F | 1.59
* I2G | 2.78
* T4C | 3.04
* S19F | 2.02
* S19W | 1.47
* K12A | 3.12
* K12G | 2.38
* C11Q | 3.04
* E13S | 1.95
* S22E | 1.98
* I2F | 2.5
* K12E | 2.9
* P8D | 3.23
* F18W | 1.99
* P8Q | 2.99
* S23P | 2.48
* Y9D | 3.29
* E6Q | 2.2
* Q20H | 2.49
* P8H | 2.12
* H3L | 2.25
* G5N | 2.44
